Target: Serine/threonine-protein kinase PLK1 (Homo sapiens)
Experiment: PLK1 polo-box domain peptide-binding inhibitors, SAR follow-up, biochemical, fluorescence polarization, purchased analogs, concentration response (AID 1083)
Settings: Plk1 PBD peptide binding
Calls of active or inactive are those of the source. How the calls were made is not given here.
Result category, one only: active, inactive

>  <structure.notation>
CCN(CC)CCOC(=O)c1ccc(N=Cc2c(O)n(C)c(=O)[nH]c2=O)cc1

>  <group.label>
inactive

$$$$
>  <structure.notation>
Cc1ccccc1-c1nnc2[nH]c(=O)n(C)c(=O)c2n1

>  <group.label>
inactive

$$$$
>  <structure.notation>
CCOC(=O)c1ccc(N=Cc2c(O)n(-c3ccc(C)cc3)c(=O)[nH]c2=O)cc1

>  <group.label>
inactive

$$$$
>  <structure.notation>
COc1ccccc1N(CN1C(=O)c2ccccc2C1=O)C(C)=O

>  <group.label>
inactive

$$$$

Alright, here's another molecule for you.
**Query** What classification did CCOc1cc(-c2nnc3[nH]c(=O)n(C)c(=O)c3n2)ccc1OC(C)C end up with in this test?
**Result** active

###

Target: Serine/threonine-protein kinase PLK1 (Homo sapiens)
Test: PLK1 polo-box domain peptide-binding inhibitors, SAR follow-up, biochemical, fluorescence polarization, purchased analogs, concentration response (AID 1083)
Conditions: Plk1 PBD peptide binding
Active and inactive are the calls of the source. The rule behind the calls is not given here.
The reply should name one outcome from active, inactive

**Query** Tell me the assay call for CC(=O)N(CN1C(=O)c2ccccc2C1=O)c1cccc(F)c1 please.
**Result** inactive

###

Biological target: Serine/threonine-protein kinase PLK1 (Homo sapiens) (UniProt P53350)
Sequence (P53350 whole entry, looked up, the tested form may be a part): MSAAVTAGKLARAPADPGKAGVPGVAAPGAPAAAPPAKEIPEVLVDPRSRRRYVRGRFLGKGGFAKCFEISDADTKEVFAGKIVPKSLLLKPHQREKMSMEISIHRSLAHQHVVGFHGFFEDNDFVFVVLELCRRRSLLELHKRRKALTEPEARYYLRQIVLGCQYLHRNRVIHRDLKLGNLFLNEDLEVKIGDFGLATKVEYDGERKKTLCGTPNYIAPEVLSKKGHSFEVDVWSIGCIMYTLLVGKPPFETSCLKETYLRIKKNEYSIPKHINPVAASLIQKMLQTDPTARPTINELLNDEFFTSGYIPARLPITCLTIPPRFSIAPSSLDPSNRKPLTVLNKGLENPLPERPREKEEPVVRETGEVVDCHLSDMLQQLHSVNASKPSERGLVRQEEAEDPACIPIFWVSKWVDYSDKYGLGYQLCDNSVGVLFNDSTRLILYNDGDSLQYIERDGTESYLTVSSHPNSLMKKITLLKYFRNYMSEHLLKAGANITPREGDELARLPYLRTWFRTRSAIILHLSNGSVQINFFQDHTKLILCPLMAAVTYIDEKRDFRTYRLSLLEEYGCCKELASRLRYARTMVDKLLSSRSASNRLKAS
Experiment: PLK1 polo-box domain peptide-binding inhibitors, SAR follow-up, biochemical, fluorescence polarization, purchased analogs, concentration response (AID 1083)
Conditions: Plk1 PBD peptide binding
Calls of active or inactive are those of the source. How the calls were made is not given here.
Answer with one of the outcomes given here: active, inactive

Answered cases to consult:
>  <compound>
CC(=O)N(CN1C(=O)c2ccccc2C1=O)c1ccc(Oc2ccccc2)cc1

>  <system.name>
Serine/threonine-protein kinase PLK1 (Homo sapiens) (UniProt P53350)

>  <group.label>
inactive

$$$$
>  <compound>
O=c1[nH]c2c(c(O)c1-c1ccccc1)c(=O)n(-c1ccccc1)c(=O)n2-c1ccccc1

>  <system.name>
Serine/threonine-protein kinase PLK1 (Homo sapiens) (UniProt P53350)

>  <group.label>
inactive

$$$$

**Query** I would be grateful if you could indicate the recorded call for Cc1cc(-n2c(C)cc(C=C3C(=O)NC(=O)NC3=O)c2C)ccc1I .
**Result** active

**Query** What outcome does the record of this test show for Cn1c(=O)c2nc(-c3ccccc3)c(=O)[nH]c2n(C)c1=O ?
**Result** inactive

**Query** Recorded test call requested for Cn1nc(-c2ccc(F)cc2)nc2c(=O)n(C)c(=O)nc1-2
**Result** active

**Query** Recorded test outcome, item CCOC(=O)c1ccc(N=Cc2c(O)n(C3CCCCC3)c(=O)n(C3CCCCC3)c2=O)cc1
**Result** inactive

**Query** Hi, do you know how CCOC(=O)c1ccc(NC(=O)C2Oc3ccccc3OC2C)cc1 (centres undefined) came out in this test?
**Result** inactive

**Query** # outcome recorded in this test, key = Cn1c(O)c(C(=O)c2ccccc2Cl)c(=O)n(C)c1=O
**Result** inactive

**Query** Could you check what this test reported for CC(=O)N(CN1C(=O)c2cc(Cl)c(Cl)cc2C1=O)c1ccc(C)c(Cl)c1 ?
**Result** inactive

**Query** Status in this test for CCOC(=O)c1ccc(NC(=O)c2cc3ccccc3oc2=O)cc1 ?
**Result** inactive

**Query** Given CCOC(=O)N1CCN(c2cc3nccnc3cc2F)CC1 , state the outcome it received in this test.
**Result** inactive

**Query** Which outcome did this test record for the compound CCN(CC)CCOC(=O)c1ccc(N=Cc2c(O)n(Cc3ccccc3)c(=O)[nH]c2=O)cc1 ?
**Result** inactive

###

Target: Serine/threonine-protein kinase PLK1 (Homo sapiens) (UniProt P53350)
Assay: PLK1 polo-box domain peptide-binding inhibitors, SAR follow-up, biochemical, fluorescence polarization, purchased analogs, concentration response (AID 1083)
Details: Plk1 PBD peptide binding
Calls of active or inactive are those of the source. How the calls were made is not given here.
assay.metric: IC50

>  <structure.notation>
CC(=O)N(/C=C1\Sc2ccccc2C1=O)c1ccc(I)cc1

>  <IC50>
> 50 µM (inactive)

$$$$
>  <structure.notation>
CCOC(=O)c1ccc(N=Cc2c(O)n(-c3cccc(C)c3)c(=O)[nH]c2=O)cc1

>  <IC50>
> 50 µM (inactive)

$$$$

**Query** Consider the compound CCOC(=O)c1ccc(NC(=O)c2ccc3snnc3c2)cc1 . State its measured IC50.
**Result** > 50 µM (inactive)

###

Molecular target: Serine/threonine-protein kinase PLK1 (Homo sapiens) (UniProt P53350)
Assay: PLK1 polo-box domain peptide-binding inhibitors, SAR follow-up, biochemical, fluorescence polarization, purchased analogs, concentration response (AID 1083)
Settings: Plk1 PBD peptide binding
The source made the active and inactive calls. How the calls were made is not given here.
Field 'call' accepts T (active), F (inactive)

// below: answered compounds
>  <compound>
O=C(COC(=O)c1ccc(NC(=O)c2ccc([N+](=O)[O-])cc2)cc1)c1ccccc1

>  <system.name>
Serine/threonine-protein kinase PLK1 (Homo sapiens) (UniProt P53350)

>  <group.label>
F

$$$$
>  <compound>
O=c1[nH]c(=O)c2nc(-c3ccc(Cl)cc3)cnc2[nH]1

>  <system.name>
Serine/threonine-protein kinase PLK1 (Homo sapiens) (UniProt P53350)

>  <group.label>
F

$$$$
>  <compound>
CC(=O)N(/N=C1\Sc2ccccc2C1=O)c1ccccc1[N+](=O)[O-]

>  <system.name>
Serine/threonine-protein kinase PLK1 (Homo sapiens) (UniProt P53350)

>  <group.label>
T

$$$$
>  <compound>
CCOC(=O)c1ccc(NC(=O)C2CC(=O)N=C(N)S2)cc1 (configuration not stated)

>  <system.name>
Serine/threonine-protein kinase PLK1 (Homo sapiens) (UniProt P53350)

>  <group.label>
F

$$$$

**Query** Called result for CCOC(=O)c1ccc(NC(=O)C2CC(=O)NC(=NC)S2)cc1 (configuration not stated)
**Result** F

**Query** Each compound tested received a call. Report the one for COc1ccc(N(CN2C(=O)c3ccccc3C2=O)C(C)=O)cc1 .
**Result** F

**Query** I would be grateful if you could indicate the recorded call for CC(=O)N(/N=C1\Sc2ccccc2C1=O)c1ccc(Br)cc1 .
**Result** T

**Query** // outcome(item) with item = CC(=O)N(CN1C(=O)c2ccc([N+](=O)[O-])cc2C1=O)c1ccc(Oc2ccccc2)cc1
**Result** F

**Query** Call for entry CCOC(=O)c1ccc(NC(=O)c2c(C)cc(=O)oc2C)cc1 :
**Result** F

**Query** What did this assay record as the result for CCOC(=O)c1ccc(NC(=O)c2cc(C)cc(C)c2)cc1 ?
**Result** F

**Query** For CCCCCC(=O)N(CN1C(=O)c2ccccc2C1=O)c1cccc(C(=O)O)c1 , what call appears in the results of this test?
**Result** F

**Query** Tell me the recorded outcome of this test for Cc1ccc(-c2nc3c(=O)n(C)c(=O)nc-3n(C)n2)cc1 .
**Result** T

**Query** So what was the verdict on CCCCCC(=O)N(CN1C(=O)c2ccccc2C1=O)c1ccccc1OC in this test?
**Result** F

**Query** Assay result, entry CC(=O)N(/N=C1\Sc2ccccc2C1=O)c1cc(C)ccc1C — outcome?
**Result** F

###

Target: Serine/threonine-protein kinase PLK1 (Homo sapiens)
Assay: PLK1 polo-box domain peptide-binding inhibitors, SAR follow-up, biochemical, fluorescence polarization, purchased analogs, concentration response (AID 1083)
Settings: Plk1 PBD peptide binding
The source made the active and inactive calls. The rule behind the calls is not given here.
Form entry, call: pick from active, inactive

Examples from the recorded data:
>  <compound>
CCn1nc(-c2ccc(C)cc2)nc2c(=O)n(C)c(=O)nc1-2

>  <system.name>
Serine/threonine-protein kinase PLK1 (Homo sapiens)

>  <group.label>
active

$$$$
>  <compound>
CC(=O)N(CN1C(=O)c2ccccc2C1=O)c1ccc(Cl)c(Cl)c1

>  <system.name>
Serine/threonine-protein kinase PLK1 (Homo sapiens)

>  <group.label>
inactive

$$$$
>  <compound>
Cn1c(=O)[nH]c2nnc(-c3ccc([N+](=O)[O-])cc3)nc2c1=O

>  <system.name>
Serine/threonine-protein kinase PLK1 (Homo sapiens)

>  <group.label>
inactive

$$$$

**Query** Recorded test outcome, item CC(OC(=O)c1ccc(NC(=O)c2ccc(Br)cc2)cc1)C(=O)c1ccccc1 (configuration not stated)
**Result** inactive

**Query** Kindly provide the recorded test outcome for the following compound: CCOC(=O)c1ccc(NC(=O)C2Cc3ccccc3C(=O)O2)cc1 (configuration not stated)
**Result** inactive

**Query** Field: outcome | Entry: CCOC(=O)c1ccc(NC(=O)C2OCCc3ccccc32)cc1 (configuration not stated)
**Result** inactive

**Query** Hello, I am checking results. What call was entered for CCOC(=O)c1ccc(N=Cc2c(O)n(Cc3ccc4c(c3)OCO4)c(=O)[nH]c2=O)cc1 ?
**Result** inactive

**Query** // outcome(item) with item = CC(=O)N(/C=C1\Sc2ccccc2C1=O)c1cc(C(F)(F)F)ccc1Cl
**Result** inactive
